Listed here: items and their measured uPA: kapp.
- testedOn: uPA (Homo sapiens, UniProt P00749)
- Construct: purchased Nodia
- measurementNotes: uPA inactivation kinetics from progress curves (kobs versus inhibitor concentration, kapp)
- Type: biochemical
- testSettings: apparent second-order rate constant from slope of kobs versus [I]0; 250 μM substrate; 37° C.; no asterisk
- Protocol: Inhibitor stock solutions were prepared in DMSO and stored at −20° C. […] where vo is the activity in absence of inhibitor, k is the second-order rate constant of inactivation, and t is the time. The inactivation rate constant was determined from the time course of inhibition. The inhibitor was mixed with the substrate (250 μM final concentration), and the buffer solution with the enzyme was added at the time zero. […] The progress curves show the absorbance of p-nitroanilide produced as a function of time. […]
Reply with the number, then its unit.

compound	testedOn	endpointValue
CCN(CC)c1ccc2c(-c3ccccc3C(=O)N3CCN(C(=O)CCCCCCCn4cc(COCCOCCOC(=O)NC(Cc5ccc(NC(=N)N)cc5)P(=O)(Oc5ccccc5)Oc5ccccc5)nn4)CC3)c3ccc(=[N+](CC)CC)cc-3oc2c1 (stereo not shown)	uPA (Homo sapiens, UniProt P00749)	1300 ± 70 M⁻¹ s⁻¹

Kindly note the recorded uPA: kapp for CCN(CC)c1ccc2c(-c3ccccc3C(=O)N3CCN(C(=O)CCCCCCCn4cc(COCCOC(=O)NC(Cc5ccc(NC(=N)N)cc5)P(=O)(Oc5ccccc5)Oc5ccccc5)nn4)CC3)c3ccc(=[N+](CC)CC)cc-3oc2c1.O=C(O)C(F)(F)F.[Cl-] (stereo not shown) , which is 1700 ± 100 M⁻¹ s⁻¹

Kindly note the recorded uPA: kapp for CCN(CC)c1ccc2c(-c3ccccc3C(=O)N3CCN(C(=O)CCCCCCCn4cc(CCCOC(=O)NC(Cc5ccc(NC(=N)N)cc5)P(=O)(Oc5ccccc5)Oc5ccccc5)nn4)CC3)c3ccc(=[N+](CC)CC)cc-3oc2c1.O=C(O)C(F)(F)F.[Cl-] (stereo not shown) , which is 4900 ± 90 M⁻¹ s⁻¹

Kindly note the recorded uPA: kapp for CCN(CC)c1ccc2c(-c3ccccc3C(=O)N3CCN(C(=O)CCCCCCCn4cc(COCCOCCOCCOC(=O)NC(Cc5ccc(NC(=N)N)cc5)P(=O)(Oc5ccccc5)Oc5ccccc5)nn4)CC3)c3ccc(=[N+](CC)CC)cc-3oc2c1 (stereo not shown) , which is 2600 ± 200 M⁻¹ s⁻¹

Origin of measurements: patent US20140079632A1
